Readings of Fold increase in potency relative to 8E2 for the listed binders
Molecular target: T1, human IL-11Rα on transfected cells (human, UniProt Q14626 23-422)
T1 sequence: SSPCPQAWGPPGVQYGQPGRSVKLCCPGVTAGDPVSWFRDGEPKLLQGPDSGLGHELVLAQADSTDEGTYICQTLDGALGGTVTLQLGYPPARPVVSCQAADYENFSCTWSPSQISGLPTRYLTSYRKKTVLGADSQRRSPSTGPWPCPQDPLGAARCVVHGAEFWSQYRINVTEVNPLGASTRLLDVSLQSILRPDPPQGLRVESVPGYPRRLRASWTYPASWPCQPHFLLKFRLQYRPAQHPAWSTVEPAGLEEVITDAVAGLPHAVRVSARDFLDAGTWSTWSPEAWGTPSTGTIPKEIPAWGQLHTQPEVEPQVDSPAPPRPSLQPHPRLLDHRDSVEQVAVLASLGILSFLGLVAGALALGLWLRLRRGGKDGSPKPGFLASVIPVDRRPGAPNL
Assay: cell-based or functional assay
Kindly provide the numeric value in fold only, without the unit symbol.

| binder | measureUnit | Fold increase in potency relative to 8E2 |
| --- | --- | --- |
| hu8E2-TS-7 (antibody, V domains shown) VH: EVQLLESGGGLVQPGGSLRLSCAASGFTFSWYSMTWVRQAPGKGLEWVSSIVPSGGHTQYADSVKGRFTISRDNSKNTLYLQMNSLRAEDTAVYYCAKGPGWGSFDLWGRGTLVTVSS VL: DIQMTQSPSSLSASVGDRVTITCQASQDINNYLNWYQQKPGKAPKLLIYDASNLQTGVPSRFSGSGSGTDFTFTISSLQPEDIATYYCQQHENQSPTFGPGTKVDIK | fold | 3.3 |

Exam item: Item under review: hu8E2-TS-6 (antibody, V domains shown) VH: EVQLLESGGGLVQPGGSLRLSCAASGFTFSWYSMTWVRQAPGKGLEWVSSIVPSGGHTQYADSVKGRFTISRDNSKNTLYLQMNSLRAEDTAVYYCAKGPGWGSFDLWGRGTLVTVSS VL: DIQMTQSPSSLSASVGDRVTITCQASQDINNYLNWYQQKPGKAPKLLIYDASNLQTGVPSRFSGSGSGTDFTFTISSLQPEDIATYYCEQFESQSPTFGPGTKVDIK . Reported Fold increase in potency relative to 8E2?
Marked response: 1.4

Exam item: Queued: hu8E2-TS-55 (antibody, V domains shown) VH: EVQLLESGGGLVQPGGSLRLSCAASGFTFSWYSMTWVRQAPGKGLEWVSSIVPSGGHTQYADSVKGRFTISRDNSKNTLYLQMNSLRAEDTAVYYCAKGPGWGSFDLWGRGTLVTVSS VL: DIQMTQSPSSLSASVGDRVTITCQASQDINNYLNWYQQKPGKAPKLLIYDASNLQTGVPSRFSGSGSGTDFTFTISSLQPEDIATYYCQQYETQTPAFGPGTKVDIK
Marked response: 4.8

Exam item: Repeat with hu8E2-TS-14 (antibody, V domains shown) VH: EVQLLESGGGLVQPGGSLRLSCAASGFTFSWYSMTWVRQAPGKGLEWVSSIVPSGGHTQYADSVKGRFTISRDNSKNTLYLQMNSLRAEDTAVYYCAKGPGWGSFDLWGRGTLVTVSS VL: DIQMTQSPSSLSASVGDRVTITCQASQDINNYLNWYQQKPGKAPKLLIYDASNLQTGVPSRFSGSGSGTDFTFTISSLQPEDIATYYCQQHDNQSPTFGPGTKVDIK
Marked response: 1.6

Exam item: // next record hu8E2-TS-21 (antibody, V domains shown) VH: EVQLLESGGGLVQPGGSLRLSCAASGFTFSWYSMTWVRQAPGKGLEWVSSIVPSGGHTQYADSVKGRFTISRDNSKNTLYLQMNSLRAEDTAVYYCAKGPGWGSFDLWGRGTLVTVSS VL: DIQMTQSPSSLSASVGDRVTITCQASQDINNYLNWYQQKPGKAPKLLIYDASNLQTGVPSRFSGSGSGTDFTFTISSLQPEDIATYYCQQSESQSPTFGPGTKVDIK
Marked response: 2.7

The values you see were collected from patent US20160031999A1.
